From: patent US20250059141A1

Property: EC50; scope: individual molecules
- Test system: IFN-α production in human PBMCs
- Procedure Text: Induction of IFN-α in human PBMCs (ELISA)
- Format: cell-based
- Test Context: PBMC, 24 h, serial 4-fold dilutions, class symbols, read-out: PBMC assay IFNa EC50

> print(dat)
                                   molecule  readout  measured.result
1  CCCN(OCc1ccc(N)cc1)C(=O)C1=Cc2ccc(C(=O)Nc3cncc(OC)c3)cc2N=C(N)C1     EC50     50 to 500 nM
2  CCCN(OCc1ccc(N)cc1)C(=O)C1=Cc2ccc(C(=O)N3CC(CO)C3)cc2N=C(N)C1     EC50         > 500 nM
3  CCCN(OCc1ccc(N)cc1)C(=O)C1=Cc2ccc(-c3cncc(S(=O)(=O)N4CC[C@H](O)C4)c3)cc2N=C(N)C1     EC50      10 to 50 nM
4  CCCN(OCc1ccc(N)cc1)C(=O)C1=Cc2ccc(C(=O)NC3CCCCC3)cc2N=C(N)C1     EC50     50 to 500 nM
5  CCCN(OCc1ccc(N)cc1)C(=O)C1=Cc2ccc(-c3cnc4c(c3)C(=O)OC4)nc2N=C(N)C1     EC50      10 to 50 nM

Determine its reported EC50: CCCN(OCc1ccc(N)cc1)C(=O)C1=Cc2ccc(-c3cncc(S(=O)(=O)N4CCC(O)CC4)c3)cc2N=C(N)C1
10 to 50 nM

Supply EC50 value. Item: CCCN(OCc1ccc(N)cc1)C(=O)C1=Cc2ccc(C(=O)N3CCOC(CO)C3)cc2N=C(N)C1 (stereo not shown)
50 to 500 nM

---

- Target: hTLR8 (human Toll-like receptor 8) (Homo sapiens, UniProt Q9NR97)
- Construct: host or cells: HEK-Blue hTLR8 (HEK293-derived reporter cells)
- Sequence (Q9NR97 27-1041): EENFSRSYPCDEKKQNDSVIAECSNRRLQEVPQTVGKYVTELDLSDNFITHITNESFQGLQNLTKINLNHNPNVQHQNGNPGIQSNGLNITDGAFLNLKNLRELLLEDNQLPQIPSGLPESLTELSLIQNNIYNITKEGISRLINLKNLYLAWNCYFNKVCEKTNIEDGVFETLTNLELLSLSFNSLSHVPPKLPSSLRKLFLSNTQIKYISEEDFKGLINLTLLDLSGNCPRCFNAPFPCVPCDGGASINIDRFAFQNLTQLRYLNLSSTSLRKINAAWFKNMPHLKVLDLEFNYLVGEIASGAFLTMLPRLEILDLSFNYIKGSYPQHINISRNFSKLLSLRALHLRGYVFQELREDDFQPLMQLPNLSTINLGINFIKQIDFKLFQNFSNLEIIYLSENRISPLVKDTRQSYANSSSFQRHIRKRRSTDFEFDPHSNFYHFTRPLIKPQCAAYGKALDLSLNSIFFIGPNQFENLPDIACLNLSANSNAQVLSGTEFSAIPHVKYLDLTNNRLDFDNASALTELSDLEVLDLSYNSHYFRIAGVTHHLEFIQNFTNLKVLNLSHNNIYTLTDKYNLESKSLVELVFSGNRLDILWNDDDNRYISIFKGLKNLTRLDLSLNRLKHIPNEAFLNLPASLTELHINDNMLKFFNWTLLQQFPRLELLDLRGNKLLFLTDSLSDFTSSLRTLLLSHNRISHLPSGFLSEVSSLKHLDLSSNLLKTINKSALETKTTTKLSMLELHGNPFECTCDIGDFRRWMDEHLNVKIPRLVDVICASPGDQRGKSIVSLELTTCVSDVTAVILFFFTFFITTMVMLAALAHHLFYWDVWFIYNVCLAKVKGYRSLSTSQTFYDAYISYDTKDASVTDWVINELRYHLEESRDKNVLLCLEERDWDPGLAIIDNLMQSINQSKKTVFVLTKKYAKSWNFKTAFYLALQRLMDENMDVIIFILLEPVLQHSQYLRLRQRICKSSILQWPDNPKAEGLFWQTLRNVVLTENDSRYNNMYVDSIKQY
- Procedure Text: HEK-Blue hTLR8 reporter assay (QUANTI-Blue, OD650)
- Type: cell-based
- Test Context: HEK-Blue hTLR8 cells, 24 h; read-out: Reporter assay TLR8 EC50
# reported pEC50; entries follow
Please report pEC50 as the negative decimal logarithm of the molar concentration, giving only the number.

> print(dat)
                           molecular.string  measured.result
1  CCCN(OCc1ccc(N)cc1)C(=O)C1=Cc2ccc(-c3cccc(S(=O)(=O)N4CC(O)C4)c3)cc2N=C(N)C1             8.27
2  CCCN(OCc1ccc(N)cc1)C(=O)C1=Cc2ccc(-c3ccc(N4CCOCC4)nc3)cc2N=C(N)C1             8.64

Recall the reported pEC50 of CCCN(OCc1ccc(N)cc1)C(=O)C1=Cc2ccc(-c3cncc(C#N)c3)cc2N=C(N)C1 when tested on hTLR8 (human Toll-like receptor 8) (Homo sapiens, UniProt Q9NR97).
8.82

---

- Tested on: IFN-α production in human PBMCs
- Procedure Text: Induction of IFN-α in human PBMCs (ELISA)
- Format: cell-based
- Test Context: PBMC, 24 h, serial 4-fold dilutions, class symbols, read-out: PBMC assay IFNa EC50
pEC50: −log10 of the molar value.
Reported pEC50 values for a set of molecules

Some molecules with recorded pEC50:
> print(dat)
                                   molecule  measured.result
1  CCCN(OCc1ccc(N)cc1)C(=O)C1=Cc2ccc(C(=O)NCCO)cc2N=C(N)C1           < 6.30
2  CCCN(OCc1ccc(N)cc1)C(=O)C1=Cc2ccc(-c3cncc(C(=O)O)c3)cc2N=C(N)C1     6.30 to 7.30
3  CCCN(OCc1ccc(N)cc1)C(=O)C1=Cc2ccc(C(=O)Nc3ncco3)cc2N=C(N)C1     6.30 to 7.30
4  CCCN(OCc1ccc(N)cc1)C(=O)C1=Cc2ccc(C(=O)Nc3ccc4cn[nH]c4c3)cc2N=C(N)C1     6.30 to 7.30
5  CCCN(OCc1ccc(N)cc1Cl)C(=O)C1=Cc2ncc(-c3cncc(CO)c3)cc2N=C(N)C1     6.30 to 7.30

Specify pEC50 for CCCN(OCc1ccc(N)cc1)C(=O)C1=Cc2ccc(-c3cncc(S(=O)(=O)N4CCNCC4)c3)cc2N=C(N)C1 and stop.
6.30 to 7.30

Identify measured pEC50 corresponding to CCCN(OCc1ccc(N)cc1)C(=O)C1=Cc2ccc(-c3cccc(S(=O)(=O)N4CCOCC4)c3)cc2N=C(N)C1
7.30 to 8.00

Respond only with pEC50 recorded for CCCN(OCc1ccc(N)cc1)C(=O)C1=Cc2ncc(-c3cncc(CO)c3)cc2N=C(N)C1
7.30 to 8.00

Item CCCN(OCc1ccc(N)cc1OC)C(=O)C1=Cc2ncc(-c3cncc(CO)c3)cc2N=C(N)C1 : provide pEC50
6.30 to 7.30

Provide pEC50 value for the following molecule: CCCN(OCc1ccc(N)cc1)C(=O)C1=Cc2ccc(C(=O)N3CCN(c4ccccc4)CC3)cc2N=C(N)C1
< 6.30

Identify pEC50 associated with the molecule CCCN(OCc1ccc(N)cc1)C(=O)C1=Cc2ccc(C(=O)N[C@@H](C)c3ccccc3)cc2N=C(N)C1
7.30 to 8.00

---

- Target: hTLR7 (human Toll-like receptor 7) (Homo sapiens)
- Construct: host or cells: HEK-Blue hTLR7 (HEK293-derived reporter cells)
- Sequence (Q9NYK1 27-1049): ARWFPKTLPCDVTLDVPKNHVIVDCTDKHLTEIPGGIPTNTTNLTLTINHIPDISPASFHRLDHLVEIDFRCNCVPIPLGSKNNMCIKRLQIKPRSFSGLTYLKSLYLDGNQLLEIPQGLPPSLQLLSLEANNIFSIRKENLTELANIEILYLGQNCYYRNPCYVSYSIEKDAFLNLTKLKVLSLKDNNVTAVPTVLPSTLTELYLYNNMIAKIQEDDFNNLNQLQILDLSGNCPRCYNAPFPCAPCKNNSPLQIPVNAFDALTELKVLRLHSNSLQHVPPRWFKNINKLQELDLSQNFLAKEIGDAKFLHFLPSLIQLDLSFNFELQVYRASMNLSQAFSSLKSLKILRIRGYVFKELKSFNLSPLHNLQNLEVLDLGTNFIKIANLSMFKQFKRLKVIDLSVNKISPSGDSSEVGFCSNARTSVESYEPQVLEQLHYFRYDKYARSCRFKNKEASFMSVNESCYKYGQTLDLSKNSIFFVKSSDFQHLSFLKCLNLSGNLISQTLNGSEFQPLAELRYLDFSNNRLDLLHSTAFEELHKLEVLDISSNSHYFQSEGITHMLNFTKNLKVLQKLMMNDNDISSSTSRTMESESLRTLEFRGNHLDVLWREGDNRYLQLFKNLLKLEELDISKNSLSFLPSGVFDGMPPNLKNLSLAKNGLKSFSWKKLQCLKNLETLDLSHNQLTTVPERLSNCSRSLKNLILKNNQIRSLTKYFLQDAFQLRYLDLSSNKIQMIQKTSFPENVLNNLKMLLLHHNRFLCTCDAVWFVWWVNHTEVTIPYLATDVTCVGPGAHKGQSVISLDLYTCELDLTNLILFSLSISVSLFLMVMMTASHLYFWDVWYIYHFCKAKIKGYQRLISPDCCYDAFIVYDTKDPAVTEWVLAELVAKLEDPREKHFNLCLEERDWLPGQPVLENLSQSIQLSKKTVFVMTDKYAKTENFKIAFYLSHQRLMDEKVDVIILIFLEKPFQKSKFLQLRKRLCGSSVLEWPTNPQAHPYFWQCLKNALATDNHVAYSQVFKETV
- Procedure Text: HEK-Blue hTLR7 reporter assay (QUANTI-Blue, OD650)
- Assay type: cell-based
- Test Context: HEK-Blue hTLR7 cells, 24 h; class symbols; read-out: Reporter assay TLR7 EC50
# reported EC50; entries follow

Tell us which EC50 value is on record for CCCN(OCc1ccc(N)cc1)C(=O)C1=Cc2ccc(-c3cncc(S(=O)(=O)N4CCNCC4)c3)cc2N=C(N)C1
100 to 1000 nM

Give me measured EC50, please, for this molecule: CCCN(OCc1ccc(N)cc1)C(=O)C1=Cc2ccc(C(=O)N3CC4(COC4)C3)cc2N=C(N)C1
> 1000 nM

Give the reported value of EC50 for this record: CCCN(OCc1ccc(N)cc1)C(=O)C1=Cc2ccc(-c3cncc([S+](C)[O-])c3)cc2N=C(N)C1 (centres unmarked)
100 to 1000 nM

---

- Target: hTLR7 (human Toll-like receptor 7) (Homo sapiens)
- Construct: host or cells: HEK-Blue hTLR7 (HEK293-derived reporter cells)
- Procedure Text: HEK-Blue hTLR7 reporter assay (QUANTI-Blue, OD650)
- Type: cell-based
- Test Context: HEK-Blue hTLR7 cells, 24 h; read-out: Reporter assay TLR7 EC50
Reported EC50 values are given for each entry in this list.
Write the number in nM without appending the unit.

In the examples that follow, each entry is paired with its recorded EC50.
> print(dat)
                           molecular.string                                    target  measured.result
1  CCCN(OCc1ccc(N)cc1)C(=O)C1=Cc2ccc(C(=O)N3CCOCC3)cc2N=C(N)C1  hTLR7 (human Toll-like receptor 7) (Homo sapiens)             3550
2  CCCN(OCc1ccc(N)cc1)C(=O)C1=Cc2ccc(-c3cccc(S(N)(=O)=O)c3)cc2N=C(N)C1  hTLR7 (human Toll-like receptor 7) (Homo sapiens)              758

Report the value of EC50 obtained on hTLR7 (human Toll-like receptor 7) (Homo sapiens) for CCCN(OCc1ccc(N)cc1)C(=O)C1=Cc2ccc(-c3ccc(C#N)nc3)cc2N=C(N)C1 .
428
